Listing of recorded TGI by entry.
system: HCT-116 colon; test: NCI tumour cell line growth inhibition, 48 h
measurement name: TGI

smiles_entry=COC(=O)/C=C/c1cn(C(C)=O)c2ccc(Br)cc12 reported_result="> 100 µM"
smiles_entry=CSCCOC(=O)C(=[N+]=[N-])c1ccc([N+](=O)[O-])cc1 reported_result="> 100 µM"
smiles_entry=COc1ccc2oc(C(=O)O)c3c2c1CCC3 reported_result="> 100 µM"
smiles_entry=CN(C)/C=N/NC(=O)/C(C#N)=C/N(C)C reported_result="> 100 µM"
smiles_entry=C[C@]12CC[C@H](O)CC1=CC[C@@H]1[C@@H]2CC[C@]2(C)C(=N/O)/C(=C/c3ccc([N+](=O)[O-])cc3)C[C@@H]12 reported_result="15.7 µM"
smiles_entry=O=c1oc(=O)c2oc3ccccc3oc1=2 reported_result="> 100 µM"
smiles_entry=CNC(=O)Oc1cc(C)c(/C=C/c2cncc(C(=O)NC)c2)c(C)c1 reported_result="> 25 µM"
smiles_entry=C[C@H](CCCNCCCNCCCN)[C@H]1CC[C@H]2[C@@H]3[C@H](OCCCN)C[C@H]4C[C@H](OCCCN)CC[C@]4(C)[C@H]3C[C@H](OCCCN)[C@]12C reported_result="10.2 µM"
smiles_entry=CC(=O)[C@@]1(O)[C@H](C)C[C@H]2[C@@H]3C=C(C)C4=Cc5c(cnn5-c5ccccc5)C[C@]4(C)[C@H]3[C@@H](O)C[C@@]21C reported_result="11.4 µM"

====

test system: ACHN renal; assay: NCI tumour cell line growth inhibition, 48 h
measurement name: TGI

compound=CN(C)CCCNC(=O)c1cncnc1Nc1ccc(OCc2cccc(F)c2)c(Cl)c1 target_system="ACHN renal" reported_result="3.06 µM"
compound=O=c1[nH]cnc2c1ncn2[C@@H]1C[C@H]1CO target_system="ACHN renal" reported_result="> 100 µM"
compound=CC(=O)c1cccc(NC(=O)C(=O)Nn2c(N)nnc2N)c1 target_system="ACHN renal" reported_result="> 100 µM"
compound="CCC1C(=O)C(O)[C@H]2[C@@H]3C(O)CC4=CC(=O)CC[C@]4(C)[C@H]3CC[C@]12C (stereo not given in full)" target_system="ACHN renal" reported_result="> 50 µM"
compound=COc1cc2c(cc1OC)C(=O)Cc1ccc(OC)c(OC)c1CN(C)CC2 target_system="ACHN renal" reported_result="> 100 µM"
compound="OCC1OC(n2cnc3c(Cl)nc(Cl)cc32)C(O)C1O (stereo not given)" target_system="ACHN renal" reported_result="> 100 µM"
compound=CC(=O)O[C@H]1C(=O)[C@@]2(C)[C@H]([C@H](OC(=O)c3ccccc3)[C@]3(O)C[C@H](OC(=O)[C@H](O)[C@@H](NC(=O)C(C)(C)C)c4ccccc4)C(C)=C1C3(C)C)[C@]1(OC(C)=O)CO[C@@H]1C[C@@H]2O target_system="ACHN renal" reported_result="> 10 µM"
compound=NC(N)=NS(=O)(=O)c1ccc(Nc2c3ccccc3nc3c(C(=O)Nc4ccc(S(N)(=O)=O)cc4)ccc(Cl)c23)cc1 target_system="ACHN renal" reported_result="> 100 µM"
compound="SC1CCCN(Cc2ccccc2)C1 (stereo not given)" target_system="ACHN renal" reported_result="> 100 µM"
compound="CCOC(=O)C(C)(C)C(O)C(C)C (stereo not given)" target_system="ACHN renal" reported_result="> 100 µM"
compound=CCCCCCc1nc2nc(Cl)c(Cl)nc2[nH]1 target_system="ACHN renal" reported_result="> 100 µM"
compound=CCOP(=O)(OCC)[C@H]1OC(C)(C)O[C@@H]1CO target_system="ACHN renal" reported_result="> 100 µM"
compound=S=c1nc(Cl)cc2[nH]c(Cl)cn12 target_system="ACHN renal" reported_result="> 100 µM"
compound=c1ccc(CN=C(NCc2ccccc2)NCc2ccccc2)cc1 target_system="ACHN renal" reported_result="21.1 µM"
compound=COc1cc(-c2nn(-c3cccc(NC(=O)c4ccc(N5CCOCC5)c(C(F)(F)F)c4)c3)cc2-c2ccncc2)ccc1Cl target_system="ACHN renal" reported_result="> 100 µM"
compound="CSc1nc(SC)c2ncn(C3CC(Oc4ccc(C)cc4)C(COc4ccc(C)cc4)O3)c2n1 (stereo not given)" target_system="ACHN renal" reported_result="> 100 µM"
compound=Cc1nc2ccccc2c(=O)n1NC(=S)Nc1ccc(Cl)cc1[N+](=O)[O-] target_system="ACHN renal" reported_result="> 100 µM"
compound=COc1ccc(OC)c(-c2cc(=O)c3c(OC)c(OC)c(OC)c(OC)c3o2)c1 target_system="ACHN renal" reported_result="71.3 µM"
compound=Nc1c(C(=O)c2ccc(CCCN3CCOCC3)cc2)cnn1-c1ccc(F)cc1 target_system="ACHN renal" reported_result="> 25 µM"
compound=COc1ccc(CNc2nc3cc(N)cc(N)c3nc2-c2ccccc2)cc1 target_system="ACHN renal" reported_result="33.6 µM"

====

This listing pairs compounds with measured TGI.
test system: DMS 114 small cell lung; experiment: NCI tumour cell line growth inhibition, 48 h
measurement name: TGI

compound="COc1ccc(OC)c(CC(C)N)c1 (stereo unspecified)" measurement_name=TGI reported_result="> 100 µM"
compound=COC(=O)c1ccc(Cl)cc1NC(=O)C1CCCCC1 measurement_name=TGI reported_result="> 100 µM"
compound=CNC(=O)c1cccc2c(Nc3ccc(NS(C)(=O)=O)cc3OC)c3cccc(C)c3nc12 measurement_name=TGI reported_result="1.25 µM"
compound=O=c1oc(=O)c2oc3ccccc3oc1=2 measurement_name=TGI reported_result="> 100 µM"
compound=COc1cc(/C=C2\C(=O)N(C(=O)c3ccc(NC(C)=O)cc3)N=C2C)ccc1O measurement_name=TGI reported_result="> 100 µM"
compound="CC(C)(C)OC(=O)NC1CCC(C(C)(C)C)CC1 (stereo unspecified)" measurement_name=TGI reported_result="> 100 µM"

====

Reported GI50 by item:
system: NCI-H522 lung; assay: NCI tumour cell line growth inhibition, 48 h
measurement name: GI50

smiles_entry=CCCCCCc1nc2nc(Cl)c(Cl)nc2[nH]1 reported_result="2730 nM"
smiles_entry=C[C@H](CCCNCCCNCCCN)[C@H]1CC[C@H]2[C@@H]3[C@H](OCCCN)C[C@H]4C[C@H](OCCCN)CC[C@]4(C)[C@H]3C[C@H](OCCCN)[C@]12C reported_result="11100 nM"
smiles_entry=O=C(Nc1nc2ccc(F)cc2s1)c1cccnc1Nc1ccc(Cl)cc1 reported_result="2170 nM"
smiles_entry=CC(=O)[C@@]1(O)[C@H](C)C[C@H]2[C@@H]3C=C(C)C4=Cc5c(cnn5-c5ccccc5)C[C@]4(C)[C@H]3[C@@H](O)C[C@@]21C reported_result="2830 nM"

====

Each entry below carries its reported GI50.
test system: SK-MEL-2 melanoma; assay: NCI tumour cell line growth inhibition, 48 h
measurement name: GI50

molecule="CCCCCCCCCCCCOC1C(C(CC(=O)N2CCN(c3cccc(C(F)(F)F)c3)CC2)NS(=O)(=O)c2cc(Cl)cc(Cl)c2)OC2OC(C)(C)OC21 (stereo not given)" measurement_name=GI50 reported_result="> 100 µM"
molecule=COc1ccc(CNc2nc3cc(N)cc(N)c3nc2-c2ccccc2)cc1 measurement_name=GI50 reported_result="14.7 µM"
molecule="C/C(=C\\COc1c2c(cc3c1CCO3)OC1(C=C2)OC(CC/C(C)=C/COc2c3ccoc3cc3oc(=O)ccc23)C(C)(C)O1)CCC(O)C(C)(C)O (stereo not given)" measurement_name=GI50 reported_result="9.58 µM"
molecule=CN(C)CCCNC(=O)c1cncnc1Nc1ccc(OCc2cccc(F)c2)c(Cl)c1 measurement_name=GI50 reported_result="2.08 µM"
molecule=COc1ccc(-c2cc(-c3ccc(O)cc3)nc3n[nH]c(N)c23)cc1 measurement_name=GI50 reported_result="16.4 µM"

====

Listed below: TGI values for each entry.
test system: SF-268 CNS; assay: NCI tumour cell line growth inhibition, 48 h
measurement name: TGI

compound=C[n+]1ccc(-c2c3nc(c(-c4cc[n+](C)cc4)c4ccc([n-]4)c(-c4cc[n+](C)cc4)c4nc(c(-c5cc[n+](C)cc5)c5ccc2[n-]5)C=C4)C=C3)cc1.[I-].[Zn+2] target_system="SF-268 CNS" reported_result="25.9 µM"
compound=Clc1cc(Br)c2c3c(c(Br)cc(Cl)c13)C(Br)=C2Br target_system="SF-268 CNS" reported_result="70.4 µM"
compound=O=C(COC(=O)c1cccc2c(=O)c3ccccc3[nH]c12)Nc1ccccc1 target_system="SF-268 CNS" reported_result="> 100 µM"
compound="O=C(Nc1ccc(Cl)c(Cl)c1)N1N=C2c3ccccc3CCC2C1c1ccc(Cl)cc1 (centres undefined)" target_system="SF-268 CNS" reported_result="> 100 µM"
compound=CCOc1ccc(NC(=O)C2=C(C)NC(C)=C(C(=O)Nc3ccc(OCC)cc3)C2c2ccccc2)cc1 target_system="SF-268 CNS" reported_result="> 100 µM"
compound=Cc1cn2c(/C=N/N=C(N)N)c(-c3cccnc3)nc2s1 target_system="SF-268 CNS" reported_result="35.8 µM"
compound=COC(=O)/C=C/c1cn(C(C)=O)c2ccc(Br)cc12 target_system="SF-268 CNS" reported_result="> 100 µM"
compound="COC(=O)c1c2c(cc3c1CC1(Cc4cc5c(cc4C1=O)CCC5)C3)CCC2 (centres undefined)" target_system="SF-268 CNS" reported_result="> 100 µM"
compound=CCOc1ccccc1NC(=O)CCc1n[nH]c(=S)o1 target_system="SF-268 CNS" reported_result="> 100 µM"
compound=Brc1cc2c(cc1C1SCCS1)OCO2 target_system="SF-268 CNS" reported_result="> 100 µM"
compound=COC(=O)CSC(=S)Nc1nnc(NC(=S)SCOC(C)=O)n1C(=S)SCC(=O)OC target_system="SF-268 CNS" reported_result="> 100 µM"
compound=O=C(/C=C/c1ccccc1)N1CCCCC1 target_system="SF-268 CNS" reported_result="> 100 µM"
compound="OC1C2CCC1C1C3C=CC(C3)C21 (centres undefined)" target_system="SF-268 CNS" reported_result="> 100 µM"
compound=Cc1nc2c(o1)C(=O)c1ccccc1C2=Nc1ccc(N2CCOCC2)cc1 target_system="SF-268 CNS" reported_result="23.6 µM"
compound=Cc1cc(C)nc(SCCc2cccc[n+]2C)n1 target_system="SF-268 CNS" reported_result="> 100 µM"
compound="N#Cc1nc(C(CO)N(Cc2ccccc2)C(=O)O)oc1N (centres undefined)" target_system="SF-268 CNS" reported_result="> 100 µM"
compound=O[C@@H]1C[C@H]2N3CC[C@@]2(c2cc4c(cc2C3)OCO4)[C@H]2O[C@@H]12 target_system="SF-268 CNS" reported_result="> 100 µM"
compound=Cc1ccc(C(=O)OCC(C)C)cc1N=NN(C)C target_system="SF-268 CNS" reported_result="> 100 µM"
compound=O=C(NO)c1ccc(Cn2c(=O)n(-c3ccccc3F)c(=O)c3ccccc32)cc1 target_system="SF-268 CNS" reported_result="4.01 µM"
compound="COC(=O)C1C2CC3C1C3C2C(=O)OC (centres undefined)" target_system="SF-268 CNS" reported_result="> 100 µM"
compound=COc1ccc(OC)c(-c2cc(=O)c3c(OC)c(OC)c(OC)c(OC)c3o2)c1 target_system="SF-268 CNS" reported_result="> 100 µM"
compound=Cc1ccc(NC2=N/C(=C/c3ccccc3)C(Cl)=N2)cc1 target_system="SF-268 CNS" reported_result="> 100 µM"
compound=CN(C)Cc1cc(C=O)cc(CN(C)C)c1O target_system="SF-268 CNS" reported_result="> 100 µM"
compound=CCC[CH2][Sn]1([CH2]CCC)[O]C(=O)c2ccc(C)cc2[O]1 target_system="SF-268 CNS" reported_result="1.46 µM"
compound=Cc1cc(-c2nc3ccc(F)cc3s2)ccc1N target_system="SF-268 CNS" reported_result="> 100 µM"
compound=C[C@]12CC[C@H](O)CC1=CC[C@@H]1[C@@H]2CC[C@]2(C)C(=N/O)/C(=C/c3ccc([N+](=O)[O-])cc3)C[C@@H]12 target_system="SF-268 CNS" reported_result="24.8 µM"
compound=COc1ccc(CNc2nc3cc(N)cc(N)c3nc2-c2ccccc2)cc1 target_system="SF-268 CNS" reported_result="22 µM"
compound=N#C/C(=C/Sc1ccccc1)C(=O)O target_system="SF-268 CNS" reported_result="53.7 µM"
compound="CCOC(=O)C(C)(C)C(O)C(C)C (centres undefined)" target_system="SF-268 CNS" reported_result="> 100 µM"
